# subject-of-test: T1, PTK6 SH2 domain (human, UniProt Q13882 78-170)
# T1 construct: PTK6, human; SH2 domain; source: bacterial expression culture, purified
# test-method-notes: fluorescence polarisation; competition; fluorescent peptide 10 nM, protein at four times the calculated KD, unlabeled competitor peptide at 11 serial 1:3 dilutions; at least 20 minutes; IC50 from a four-parameter log-logistic fit, one-site competition model
# study-conditions: both partners purified
Non-standard residues stand in square brackets, D forms with d. No end group written: not given here. pY = N[C@@H](Cc1ccc(OP(=O)(O)O)cc1)C(=O)O
metric: IC50 (µM)
Dear colleague, please return just the value in µM, with no unit written.

Prompt: Given FGTV[pY]KGIWIPD [ErbB2-pY735 phosphopeptide, unlabeled competitor] , respond with its IC50.
Response: 148
